Below are pIC50 values recorded for UniProt:O42275.
Sequence (O42275 whole entry): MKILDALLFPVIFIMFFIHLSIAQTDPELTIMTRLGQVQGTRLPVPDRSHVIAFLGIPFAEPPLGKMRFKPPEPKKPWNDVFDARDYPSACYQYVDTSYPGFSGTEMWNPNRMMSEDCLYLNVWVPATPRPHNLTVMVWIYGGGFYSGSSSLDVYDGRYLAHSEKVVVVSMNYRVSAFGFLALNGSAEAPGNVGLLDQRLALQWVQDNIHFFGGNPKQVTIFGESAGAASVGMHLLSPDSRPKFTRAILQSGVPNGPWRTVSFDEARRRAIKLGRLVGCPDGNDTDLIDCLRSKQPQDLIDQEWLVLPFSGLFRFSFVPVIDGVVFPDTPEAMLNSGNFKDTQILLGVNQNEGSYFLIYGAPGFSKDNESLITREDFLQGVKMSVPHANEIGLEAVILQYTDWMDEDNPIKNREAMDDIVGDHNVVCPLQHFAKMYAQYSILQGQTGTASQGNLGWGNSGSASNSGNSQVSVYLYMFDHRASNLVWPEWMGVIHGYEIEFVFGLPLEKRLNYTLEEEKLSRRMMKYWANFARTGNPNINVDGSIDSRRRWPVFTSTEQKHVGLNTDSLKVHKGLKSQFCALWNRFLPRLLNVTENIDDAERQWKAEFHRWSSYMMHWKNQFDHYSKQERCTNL
Please note pIC50 is a logarithmic value: minus log10 of concentration in mol/L. Answer with that number alone.

Worked cases, answers included:
[
  {
    "ITEM SMILES": "O=C1c2ccccc2C(=O)N1CCCCCN1CCN(Cc2ccccc2)CC1",
    "pIC50": 7.45
  },
  {
    "ITEM SMILES": "COc1ccc(CN2CCN(CCCCCCCCN3C(=O)c4ccccc4C3=O)CC2)cc1",
    "pIC50": 6.16
  },
  {
    "ITEM SMILES": "O=C1c2ccccc2C(=O)N1CCCCCCCCCN1CCN(Cc2ccccc2)CC1",
    "pIC50": 7.39
  }
]

Alright, here's another compound for you.
Look up UniProt:O42275 data: pIC50 of COc1ccc(CN2CCN(CCCCN3C(=O)c4ccccc4C3=O)CC2)cc1 , then report it.
6.39

meta.source: ChEMBL document CHEMBL3792384
